target.desc: UBE2S
assay.info: reporter assay of Huesken 2005
study.conditions: siRNA
Oligonucleotides are written 5' to 3', each unit as a sugar letter and its base; * is a phosphorothioate linkage, no mark a phosphodiester; rarer units and linkages stand in square brackets, end groups in braces. Plain capitals give the bases only. d = 2'-deoxy (DNA); r = 2'-OH (RNA)
Class fulfilled: normalised inhibition (eCFP-eYFP dual reporter) at least 50%. Class not fulfilled: normalised inhibition (eCFP-eYFP dual reporter) below 50%.

Task item: Does the substance sense rGrGrGrGrCrUrGrArGrGrGrUrCrCrCrArUrGrGdTdT / antisense rCrCrArUrGrGrGrArCrCrCrUrCrArGrCrCrCrCdTdC have recorded normalised inhibition (eCFP-eYFP dual reporter) that is 50% or more?
Reply: not fulfilled

Task item: Same for sense rArUrGrCrUrGrGrCrGrArGrCrGrCrGrArUrArAdTdT / antisense rUrUrArUrCrGrCrGrCrUrCrGrCrCrArGrCrArUdGdC
Reply: fulfilled

Task item: And for sense rGrGrCrUrArCrUrUrCrCrUrGrArCrCrArArGrAdTdT / antisense rUrCrUrUrGrGrUrCrArGrGrArArGrUrArGrCrCdCdT ?
Reply: fulfilled

Task item: Request: sense rCrCrCrGrUrCrUrGrCrUrCrArCrArGrArGrArUdTdT / antisense rArUrCrUrCrUrGrUrGrArGrCrArGrArCrGrGrGdCdC
Reply: fulfilled

Task item: Entry sense rCrCrCrArArCrGrArGrGrArGrGrArCrCrUrCrAdTdT / antisense rUrGrArGrGrUrCrCrUrCrCrUrCrGrUrUrGrGrGdAdA please
Reply: fulfilled

Task item: Let us now turn to sense rGrUrGrGrGrCrGrCrCrArArUrGrGrCrGrArGrAdTdT / antisense rUrCrUrCrGrCrCrArUrUrGrGrCrGrCrCrCrArCdGdT
Reply: fulfilled

Task item: Same for sense rGrArGrUrCrUrGrCrArCrUrCrArArCrGrArGrGdTdT / antisense rCrCrUrCrGrUrUrGrArGrUrGrCrArGrArCrUrCdGdG
Reply: fulfilled

Task item: Record: sense rArUrCrUrUrCrCrArCrCrCrGrArArCrGrUrGrGdTdT / antisense rCrCrArCrGrUrUrCrGrGrGrUrGrGrArArGrArUdCdT
Reply: not fulfilled

Task item: Request: sense rArCrGrArGrGrArGrGrCrGrGrGrCrCrGrCrCrUdTdT / antisense rArGrGrCrGrGrCrCrCrGrCrCrUrCrCrUrCrGrUdTdG
Reply: not fulfilled

Task item: Request: sense rUrUrCrCrCrArArCrGrArGrGrArGrGrArCrCrUdTdT / antisense rArGrGrUrCrCrUrCrCrUrCrGrUrUrGrGrGrArAdAdG
Reply: not fulfilled

Task item: Next entry: sense rGrUrArUrGrCrArGrCrUrCrGrGrGrCrCrCrGrUdTdT / antisense rArCrGrGrGrCrCrCrGrArGrCrUrGrCrArUrArCdTdC
Reply: not fulfilled

* * *

target.desc: UBE2S
assay.info: reporter assay of Huesken 2005
study.conditions: siRNA
Oligonucleotides are written 5' to 3', each unit as a sugar letter and its base; * is a phosphorothioate linkage, no mark a phosphodiester; rarer units and linkages stand in square brackets, end groups in braces. Plain capitals give the bases only. d = 2'-deoxy (DNA); r = 2'-OH (RNA)
Answer each item with its documented normalised inhibition (eCFP-eYFP dual reporter).
# unit: % | format: bare number

Task item: I would be grateful if you could share the reported normalised inhibition (eCFP-eYFP dual reporter) for sense rCrUrGrGrGrGrArArGrGrArCrUrUrCrCrCrUrGdTdT / antisense rCrArGrGrGrArArGrUrCrCrUrUrCrCrCrCrArGdCdA .
Reply: 40.4

Task item: And then sense rGrCrCrCrArGrCrGrGrCrArGrGrGrCrCrGrArAdTdT / antisense rUrUrCrGrGrCrCrCrUrGrCrCrGrCrUrGrGrGrCdCdC , what is it?
Reply: 42

Task item: sense rArGrGrGrCrCrGrArArGrCrCrGrGrUrCrGrGrGdTdT / antisense rCrCrCrGrArCrCrGrGrCrUrUrCrGrGrCrCrCrUdGdC , same question.
Reply: 49.1

* * *

target.desc: Mmp7 (rat)
assay.info: reporter assay of Huesken 2005
study.conditions: siRNA
Oligonucleotides are given in HELM: sugar(base)linkage, 5' to 3'; d 2'-deoxyribose, r ribose, m 2'-O-methylribose, p phosphate. ss, as = sense and antisense strand
quantity.measured: normalised inhibition (eCFP-eYFP dual reporter) (%)
Numbers only here, please. The scale is %.

Task item: # value lookup — system Mmp7 (rat), readout normalised inhibition (eCFP-eYFP dual reporter), item `RNA1{r(C)p.r(U)p.r(G)p.r(A)p.r(G)p.r(G)p.r(G)p.r(A)p.r(A)p.r(A)p.r(U)p.r(G)p.r(C)p.r(A)p.r(G)p.r(A)p.r(A)p.r(G)p.r(U)p.d(T)p.d(T)}|RNA2{r(A)p.r(C)p.r(U)p.r(U)p.r(C)p.r(U)p.r(G)p.r(C)p.r(A)p.r(U)p.r(U)p.r(U)p.r(C)p.r(C)p.r(C)p.r(U)p.r(C)p.r(A)p.r(G)p.d(T)p.d(T)}$$$RNA1{StrandType:ss}|RNA2{StrandType:as}$`
Reply: 83.4

Task item: Now try `RNA1{r(A)p.r(G)p.r(U)p.r(A)p.r(C)p.r(U)p.r(G)p.r(G)p.r(A)p.r(C)p.r(G)p.r(G)p.r(A)p.r(U)p.r(G)p.r(G)p.r(U)p.r(G)p.r(A)p.d(T)p.d(T)}|RNA2{r(U)p.r(C)p.r(A)p.r(C)p.r(C)p.r(A)p.r(U)p.r(C)p.r(C)p.r(G)p.r(U)p.r(C)p.r(C)p.r(A)p.r(G)p.r(U)p.r(A)p.r(C)p.r(U)p.d(C)p.d(A)}$$$RNA1{StrandType:ss}|RNA2{StrandType:as}$` .
Reply: 90.5

Task item: Next entry: `RNA1{r(G)p.r(G)p.r(A)p.r(C)p.r(A)p.r(A)p.r(A)p.r(C)p.r(U)p.r(G)p.r(A)p.r(G)p.r(G)p.r(G)p.r(A)p.r(A)p.r(A)p.r(U)p.r(G)p.d(T)p.d(T)}|RNA2{r(C)p.r(A)p.r(U)p.r(U)p.r(U)p.r(C)p.r(C)p.r(C)p.r(U)p.r(C)p.r(A)p.r(G)p.r(U)p.r(U)p.r(U)p.r(G)p.r(U)p.r(C)p.r(C)p.d(A)p.d(C)}$$$RNA1{StrandType:ss}|RNA2{StrandType:as}$`
Reply: 83

Task item: How about this substance: `RNA1{r(G)p.r(G)p.r(A)p.r(G)p.r(A)p.r(C)p.r(U)p.r(G)p.r(G)p.r(A)p.r(A)p.r(A)p.r(G)p.r(C)p.r(U)p.r(G)p.r(U)p.r(C)p.r(C)p.d(T)p.d(T)}|RNA2{r(G)p.r(G)p.r(A)p.r(C)p.r(A)p.r(G)p.r(C)p.r(U)p.r(U)p.r(U)p.r(C)p.r(C)p.r(A)p.r(G)p.r(U)p.r(C)p.r(U)p.r(C)p.r(C)p.d(G)p.d(G)}$$$RNA1{StrandType:ss}|RNA2{StrandType:as}$`
Reply: 88.7

Task item: Also check `RNA1{r(G)p.r(A)p.r(U)p.r(G)p.r(G)p.r(U)p.r(G)p.r(A)p.r(G)p.r(G)p.r(A)p.r(C)p.r(U)p.r(C)p.r(A)p.r(G)p.r(G)p.r(C)p.r(G)p.d(T)p.d(T)}|RNA2{r(C)p.r(G)p.r(C)p.r(C)p.r(U)p.r(G)p.r(A)p.r(G)p.r(U)p.r(C)p.r(C)p.r(U)p.r(C)p.r(A)p.r(C)p.r(C)p.r(A)p.r(U)p.r(C)p.d(C)p.d(G)}$$$RNA1{StrandType:ss}|RNA2{StrandType:as}$`
Reply: 61.8

* * *

Would you mind telling me the reported normalised inhibition (eCFP-eYFP dual reporter) of each entry?
target.desc: Mmp7 (rat)
assay.info: reporter assay of Huesken 2005
study.conditions: siRNA
Oligonucleotides are given in HELM: sugar(base)linkage, 5' to 3'; d 2'-deoxyribose, r ribose, m 2'-O-methylribose, p phosphate. ss, as = sense and antisense strand
State the answer as a number, implicitly in %.

Task item: Requested read-out: normalised inhibition (eCFP-eYFP dual reporter). Entry: `RNA1{r(G)p.r(G)p.r(A)p.r(C)p.r(G)p.r(G)p.r(A)p.r(U)p.r(G)p.r(G)p.r(U)p.r(G)p.r(A)p.r(G)p.r(G)p.r(A)p.r(C)p.r(U)p.r(C)p.d(T)p.d(T)}|RNA2{r(G)p.r(A)p.r(G)p.r(U)p.r(C)p.r(C)p.r(U)p.r(C)p.r(A)p.r(C)p.r(C)p.r(A)p.r(U)p.r(C)p.r(C)p.r(G)p.r(U)p.r(C)p.r(C)p.d(A)p.d(G)}$$$RNA1{StrandType:ss}|RNA2{StrandType:as}$`
Reply: 81.1

Task item: Field entry: `RNA1{r(U)p.r(G)p.r(A)p.r(G)p.r(U)p.r(A)p.r(C)p.r(U)p.r(G)p.r(G)p.r(A)p.r(C)p.r(G)p.r(G)p.r(A)p.r(U)p.r(G)p.r(G)p.r(U)p.d(T)p.d(T)}|RNA2{r(A)p.r(C)p.r(C)p.r(A)p.r(U)p.r(C)p.r(C)p.r(G)p.r(U)p.r(C)p.r(C)p.r(A)p.r(G)p.r(U)p.r(A)p.r(C)p.r(U)p.r(C)p.r(A)p.d(T)p.d(C)}$$$RNA1{StrandType:ss}|RNA2{StrandType:as}$`
Reply: 63.1

Task item: Same question, `RNA1{r(A)p.r(U)p.r(G)p.r(A)p.r(G)p.r(U)p.r(A)p.r(C)p.r(U)p.r(G)p.r(G)p.r(A)p.r(C)p.r(G)p.r(G)p.r(A)p.r(U)p.r(G)p.r(G)p.d(T)p.d(T)}|RNA2{r(C)p.r(C)p.r(A)p.r(U)p.r(C)p.r(C)p.r(G)p.r(U)p.r(C)p.r(C)p.r(A)p.r(G)p.r(U)p.r(A)p.r(C)p.r(U)p.r(C)p.r(A)p.r(U)p.d(C)p.d(C)}$$$RNA1{StrandType:ss}|RNA2{StrandType:as}$` this time
Reply: 41.9

Task item: Now this one: `RNA1{r(G)p.r(C)p.r(A)p.r(G)p.r(A)p.r(A)p.r(U)p.r(U)p.r(C)p.r(U)p.r(C)p.r(A)p.r(C)p.r(U)p.r(A)p.r(A)p.r(U)p.r(G)p.r(C)p.d(T)p.d(T)}|RNA2{r(G)p.r(C)p.r(A)p.r(U)p.r(U)p.r(A)p.r(G)p.r(U)p.r(G)p.r(A)p.r(G)p.r(A)p.r(A)p.r(U)p.r(U)p.r(C)p.r(U)p.r(G)p.r(C)p.d(A)p.d(A)}$$$RNA1{StrandType:ss}|RNA2{StrandType:as}$`
Reply: 94.3

Task item: Same question for `RNA1{r(U)p.r(A)p.r(U)p.r(C)p.r(U)p.r(U)p.r(A)p.r(G)p.r(G)p.r(A)p.r(A)p.r(A)p.r(U)p.r(U)p.r(U)p.r(U)p.r(A)p.r(C)p.r(C)p.d(T)p.d(T)}|RNA2{r(G)p.r(G)p.r(U)p.r(A)p.r(A)p.r(A)p.r(A)p.r(U)p.r(U)p.r(U)p.r(C)p.r(C)p.r(U)p.r(A)p.r(A)p.r(G)p.r(A)p.r(U)p.r(A)p.d(A)p.d(T)}$$$RNA1{StrandType:ss}|RNA2{StrandType:as}$` please.
Reply: 28.4

Task item: And then `RNA1{r(G)p.r(G)p.r(A)p.r(A)p.r(A)p.r(C)p.r(A)p.r(C)p.r(U)p.r(C)p.r(U)p.r(A)p.r(G)p.r(G)p.r(C)p.r(C)p.r(A)p.r(U)p.r(G)p.d(T)p.d(T)}|RNA2{r(C)p.r(A)p.r(U)p.r(G)p.r(G)p.r(C)p.r(C)p.r(U)p.r(A)p.r(G)p.r(A)p.r(G)p.r(U)p.r(G)p.r(U)p.r(U)p.r(U)p.r(C)p.r(C)p.d(T)p.d(G)}$$$RNA1{StrandType:ss}|RNA2{StrandType:as}$` , what is it?
Reply: 89.7

Task item: And then `RNA1{r(G)p.r(C)p.r(C)p.r(U)p.r(U)p.r(U)p.r(G)p.r(C)p.r(A)p.r(C)p.r(C)p.r(G)p.r(G)p.r(G)p.r(G)p.r(C)p.r(C)p.r(A)p.r(G)p.d(T)p.d(T)}|RNA2{r(C)p.r(U)p.r(G)p.r(G)p.r(C)p.r(C)p.r(C)p.r(C)p.r(G)p.r(G)p.r(U)p.r(G)p.r(C)p.r(A)p.r(A)p.r(A)p.r(G)p.r(G)p.r(C)p.d(A)p.d(T)}$$$RNA1{StrandType:ss}|RNA2{StrandType:as}$` , what is it?
Reply: 32.6

Task item: Then this substance: `RNA1{r(A)p.r(G)p.r(U)p.r(G)p.r(C)p.r(A)p.r(G)p.r(U)p.r(G)p.r(G)p.r(A)p.r(C)p.r(A)p.r(A)p.r(A)p.r(C)p.r(U)p.r(G)p.r(A)p.d(T)p.d(T)}|RNA2{r(U)p.r(C)p.r(A)p.r(G)p.r(U)p.r(U)p.r(U)p.r(G)p.r(U)p.r(C)p.r(C)p.r(A)p.r(C)p.r(U)p.r(G)p.r(C)p.r(A)p.r(C)p.r(U)p.d(G)p.d(G)}$$$RNA1{StrandType:ss}|RNA2{StrandType:as}$`
Reply: 110

Task item: Can you handle `RNA1{r(G)p.r(C)p.r(G)p.r(G)p.r(A)p.r(G)p.r(A)p.r(U)p.r(G)p.r(C)p.r(U)p.r(C)p.r(A)p.r(C)p.r(U)p.r(U)p.r(U)p.r(G)p.r(A)p.d(T)p.d(T)}|RNA2{r(U)p.r(C)p.r(A)p.r(A)p.r(A)p.r(G)p.r(U)p.r(G)p.r(A)p.r(G)p.r(C)p.r(A)p.r(U)p.r(C)p.r(U)p.r(C)p.r(C)p.r(G)p.r(C)p.d(C)p.d(G)}$$$RNA1{StrandType:ss}|RNA2{StrandType:as}$` next?
Reply: 108

Task item: Queued: `RNA1{r(U)p.r(G)p.r(A)p.r(A)p.r(C)p.r(U)p.r(U)p.r(C)p.r(C)p.r(U)p.r(G)p.r(U)p.r(U)p.r(U)p.r(G)p.r(U)p.r(U)p.r(G)p.r(C)p.d(T)p.d(T)}|RNA2{r(G)p.r(C)p.r(A)p.r(A)p.r(C)p.r(A)p.r(A)p.r(A)p.r(C)p.r(A)p.r(G)p.r(G)p.r(A)p.r(A)p.r(G)p.r(U)p.r(U)p.r(C)p.r(A)p.d(C)p.d(G)}$$$RNA1{StrandType:ss}|RNA2{StrandType:as}$`
Reply: 33.7
